system: Pyricularia oryzae (rice blast); test: whole plant or invertebrate; assay type: in vivo; details: Pyricularia oryzae, foliar, read-out: PYRIOR disease control, host rice; foliar spray; 400 ppm (+++: 100 ppm)
MEASURED_PROPERTY: pest or weed control at 400 µg/mL

A selection of reference data follows.
>  <SMILES_DATA>
FC(F)(F)c1cnc(Oc2ccc(CCNc3ncnc4cccnc34)cc2)c(Cl)c1

>  <SYSTEM_UNDER_TEST>
Pyricularia oryzae (rice blast)

>  <MEASURED_PROPERTY>
pest or weed control at 400 µg/mL

>  <RECORDED_RESULT>
90 to 100%

$$$$
>  <SMILES_DATA>
Fc1cccc2c(NCCc3ccc(Oc4ncccc4C(F)(F)F)cc3)ncnc12

>  <SYSTEM_UNDER_TEST>
Pyricularia oryzae (rice blast)

>  <MEASURED_PROPERTY>
pest or weed control at 400 µg/mL

>  <RECORDED_RESULT>
90 to 100%

$$$$
>  <SMILES_DATA>
ClC(Cl)(Cl)c1ccc(Oc2ccc(CCOc3ncnc4ccccc34)cc2)nc1

>  <SYSTEM_UNDER_TEST>
Pyricularia oryzae (rice blast)

>  <MEASURED_PROPERTY>
pest or weed control at 400 µg/mL

>  <RECORDED_RESULT>
20 to 89%

$$$$
>  <SMILES_DATA>
Clc1cnc(Oc2ccc(CCOc3ncnc4ccccc34)cc2)nc1

>  <SYSTEM_UNDER_TEST>
Pyricularia oryzae (rice blast)

>  <MEASURED_PROPERTY>
pest or weed control at 400 µg/mL

>  <RECORDED_RESULT>
20 to 89%

$$$$

Please report pest or weed control at 400 µg/mL for every entry that follows.
1. Fc1cccc2c(OCCc3ccc(Oc4cccc(OCC(F)(F)F)n4)cc3)ncnc12
2. Fc1cccc2c(NCCc3ccc(Oc4cc(C(F)(F)F)ccn4)cc3)ncnc12
3. FC(F)(F)c1ccc(Oc2ccc(CCOc3ncnc4ncccc34)cc2)nc1
4. c1cnc(Oc2ccc(CCOc3ncnc4ccccc34)cc2)nc1
5. Fc1cccc2c(NCCc3ccc(Oc4ccc(C(F)(F)F)cn4)cc3)ncnc12
6. Fc1cccc2c(NCCc3ccc(Oc4cccc(C(F)(F)F)n4)cc3)ccnc12

**A:**
20 to 89%
90 to 100%
90 to 100%
90 to 100%
20 to 89%
20 to 89%

**Q:** Name the reported pest or weed control at 400 µg/mL value associated with the molecule `Fc1cccc2c(OCCc3ccc(Oc4ncc(Cl)cc4Cl)cc3)ncnc12`
**A:** 90 to 100%
